As shown below, each of these molecules has a reported melting point value.

{"molecule": "CC(C)N(C(C)C)S(=O)(=O)c1ccc(NN)nc1", "melting point": "159 to 161 °C"}
{"molecule": "Cc1ccc(-n2nc(C)c(C(=O)O)n2)c(C)c1", "melting point": "178 to 180 °C"}
{"molecule": "O=C(O)c1cnoc1", "melting point": "99 to 101 °C"}
{"molecule": "Cc1noc(-c2ccc(N)c(Cl)c2)n1", "melting point": "141 to 143 °C"}
{"molecule": "CN1CCN(C(=O)C2CCCNC2)CC1 (centres undefined)", "melting point": "85 to 87 °C"}
{"molecule": "O=Cc1ccc(-c2c(F)cccc2F)o1", "melting point": "51 to 53 °C"}
{"molecule": "Oc1nnnn1-c1ccc(Cl)cc1", "melting point": "141 to 143 °C"}
{"molecule": "N#CCC(C(=O)O)c1ccccc1 (centres undefined)", "melting point": "64 to 66 °C"}
{"molecule": "COC1(OC)C2(Cl)C3C(=O)C4C5C(=O)C3C1(Cl)C5(Cl)C42Cl (centres undefined)", "melting point": "155 to 157 °C"}
{"molecule": "O=C(O)c1conc1-c1ccc(Cl)cc1", "melting point": "182 to 184 °C"}

[Q] Quick one: melting point for Cn1cnc(S(=O)(=O)NCC(=O)O)c1 ?
[A] 211 to 213 °C

[Q] Quick one: melting point for CCCC(C)C(N)C(=O)O (centres undefined) ?
[A] 259 to 261 °C

[Q] Quick one: melting point for O=C(O)C1CC1C1CC1 (centres undefined) ?
[A] 29 to 31 °C

[Q] Quick one: melting point for CN(C)c1cc(C#N)ccn1 ?
[A] 69 to 71 °C

* * *

As shown below, each of these compounds has a reported melting point value.

{"compound": "Cc1cc2occ(CC(=O)O)c2cc1C(C)C", "melting point": "141 to 143 °C"}
{"compound": "CC1CCCC(C)N1S(=O)(=O)c1ccc(N)cc1 (configuration not stated)", "melting point": "215 to 217 °C"}
{"compound": "Oc1ccc(-c2nc3ccccc3s2)cc1Cl", "melting point": "186 to 188 °C"}
{"compound": "O=Cc1ccc2cn[nH]c2c1", "melting point": "179 to 181 °C"}
{"compound": "COc1coc(CCl)cc1=O", "melting point": "116 to 118 °C"}
{"compound": "O=C(O)c1cc(C2CC2)nc2ccc(F)cc12", "melting point": "196 to 198 °C"}

Continue with the next compound.
[Q] Quick one: melting point for O=C(Nc1ccc(Br)cc1)C1CCNCC1 ?
[A] 209 to 211 °C

* * *

observationType: melting point

{"molecule": "Nc1c(O)c(Cl)cc(Cl)c1Cl", "melting point": "119 to 121 °C"}
{"molecule": "CCNC(c1cccnc1)c1ccc2c(c1)CCO2 (stereo not drawn)", "melting point": "50 to 52 °C"}
{"molecule": "CC(O)C(NS(=O)(=O)c1ccc(Cl)cc1)C(=O)O (stereo not drawn)", "melting point": "179 to 181 °C"}

[Q] Quick one: melting point for O=C(Cn1ccnc1)c1cccc(F)c1 ?
[A] 113 to 115 °C

[Q] Quick one: melting point for O=C(O)C=Cc1cc(Cl)ccc1OCc1ccccc1Cl ?
[A] 195 to 197 °C

[Q] Quick one: melting point for CCOC(=O)c1cnn2c1NCCC2 ?
[A] 159 to 161 °C

[Q] Quick one: melting point for CC(C)C(NC(=O)c1ccccc1F)C(=O)O (stereo not drawn) ?
[A] 116 to 118 °C

[Q] Quick one: melting point for Nc1ccc(-c2cc[nH]n2)cc1 ?
[A] 99 to 101 °C

[Q] Quick one: melting point for c1cncc(-c2ncc[nH]2)c1 ?
[A] 208 to 210 °C

[Q] Quick one: melting point for O=C(O)c1c(C(F)(F)F)nn(-c2ccccc2)c1C(F)(F)F ?
[A] 156 to 158 °C

[Q] Quick one: melting point for NS(=O)(=O)CCc1ccccc1 ?
[A] 122 to 124 °C

[Q] Quick one: melting point for O=c1[nH]nc(-c2ccco2)o1 ?
[A] 111 to 113 °C

[Q] Quick one: melting point for COC(=O)c1sc2c(c1N)CCC(C(C)(C)C)C2 (stereo not drawn) ?
[A] 153 to 155 °C
